Data credit: patent US9566312B2

Attribute: pIC50
system: peripheral blood mononuclear cells (PBMC); test: Anti-proliferative or immunosuppressive activity, BrdU incorporation in PHA-stimulated PBMC; format: cell-based; settings: PHA 3 μg/ml, 60 hour compound treatment; read-out: EMV PBMC IC50
pIC50: −log10 of the molar value. Starred links: 1 amine or outer side, 2 acyl side, 3 side chain; linkers in the order of their positions; H or OH if unused. Non-standard residues stand in square brackets, D forms with d. Residues, ends and D or L forms follow the SMILES beside them. X45 = C[C@H](CCC(=O)N1CC2CCC(C1)O2)[C@@H](C(=O)[*:2])N(C)[*:1]; X41 = CC(C)N1CCN(C[C@@H](C)[C@@H](C(=O)[*:2])N(C)[*:1])CC1; X6 = C[C@@H](CN1CCN(C2COC2)CC1)[C@@H](C(=O)[*:2])N(C)[*:1]; X65 = C[C@H](CCN1CCCCC1)[C@@H](C(=O)[*:2])N(C)[*:1]; MeBmt = C/C=C/C[C@@H](C)[C@@H](O)[C@H](NC)C(=O)O; NMeL = CN[C@@H](CC(C)C)C(=O)O; NMeV = CN[C@H](C(=O)O)C(C)C; dNMeA = CN[C@H](C)C(=O)O; Abu = CC[C@H](N)C(=O)O
Endpoint name: pIC50

[[record]]
compound = "C/C=C/C[C@@H](C)[C@@H](O)[C@H]1C(=O)N[C@@H](CC)C(=O)N(C)[C@H](CCCNC)C(=O)N(C)[C@@H]([C@H](C)COC)C(=O)N[C@@H](C(C)C)C(=O)N(C)[C@@H](CC(C)C)C(=O)N[C@@H](C)C(=O)N[C@H](C)C(=O)N(C)[C@@H](CC(C)C)C(=O)N(C)[C@@H](CC(C)C)C(=O)N(C)[C@@H](C(C)C)C(=O)N1C (stereo in doubt) [Compound 3.2.1]"
target_under_test = "peripheral blood mononuclear cells (PBMC)"
number = 4.46

[[record]]
compound = "C/C=C/C[C@@H](C)[C@@H](O)[C@H]1C(=O)N[C@@H](CC)C(=O)N(C)[C@H](C)C(=O)N(C)[C@@H]([C@@H](C)CN2CCN(C3COC3)CC2)C(=O)N[C@@H](C(C)C)C(=O)N(C)[C@@H](CC(C)C)C(=O)N[C@@H](C)C(=O)N[C@H](C)C(=O)N(C)[C@@H](CC(C)C)C(=O)N(C)[C@@H](CC(C)C)C(=O)N(C)[C@@H](C(C)C)C(=O)N1C [Compound 2.17.5] (cyclo(A[dA][NMeL][NMeL][NMeV][MeBmt][Abu][dNMeA][X6]V[NMeL]))"
target_under_test = "peripheral blood mononuclear cells (PBMC)"
number = 4.45

[[record]]
compound = "C/C=C/C[C@@H](C)[C@@H](O)[C@H]1C(=O)N[C@@H](CC)C(=O)N(C)[C@H](C)C(=O)N(C)[C@@H]([C@H](C)CCN2CCCCC2)C(=O)N[C@@H](C(C)C)C(=O)N(C)[C@@H](CC(C)C)C(=O)N[C@@H](C)C(=O)N[C@H](C)C(=O)N(C)[C@@H](CC(C)C)C(=O)N(C)[C@@H](CC(C)C)C(=O)N(C)[C@@H](C(C)C)C(=O)N1C [Compound 2.18.8] (cyclo(A[dA][NMeL][NMeL][NMeV][MeBmt][Abu][dNMeA][X65]V[NMeL]))"
target_under_test = "peripheral blood mononuclear cells (PBMC)"
number = 6.00

[[record]]
compound = "C/C=C/C[C@@H](C)[C@@H](O)[C@H]1C(=O)N[C@@H](CC)C(=O)N(C)[C@H](C)C(=O)N(C)[C@@H]([C@H](C)CN2CCN(C(C)C)CC2)C(=O)N[C@@H](C(C)C)C(=O)N(C)[C@@H](CC(C)C)C(=O)N[C@@H](C)C(=O)N[C@H](C)C(=O)N(C)[C@@H](CC(C)C)C(=O)N(C)[C@@H](CC(C)C)C(=O)N(C)[C@@H](C(C)C)C(=O)N1C [Compound 2.5.12] (cyclo(A[dA][NMeL][NMeL][NMeV][MeBmt][Abu][dNMeA][X41]V[NMeL]))"
target_under_test = "peripheral blood mononuclear cells (PBMC)"
number = 5.51

[[record]]
compound = "C/C=C/C[C@@H](C)[C@@H](O)[C@H]1C(=O)N[C@@H](CC)C(=O)N(C)[C@H](C)C(=O)N(C)[C@@H]([C@H](C)CCC(=O)N2CC3CCC(C2)O3)C(=O)N[C@@H](C(C)C)C(=O)N(C)[C@@H](CC(C)C)C(=O)N[C@@H](C)C(=O)N[C@H](C)C(=O)N(C)[C@@H](CC(C)C)C(=O)N(C)[C@@H](CC(C)C)C(=O)N(C)[C@@H](C(C)C)C(=O)N1C [Compound 2.14.2] (cyclo(A[dA][NMeL][NMeL][NMeV][MeBmt][Abu][dNMeA][X45]V[NMeL]))"
target_under_test = "peripheral blood mononuclear cells (PBMC)"
number = 5.17


----------
biological target: UniProt P23284; test: Inhibitor binding to cyclophilin proteins by SPR, CypB; set-up: unit not given here; settings: 1:1 binding model
Sequence (P23284 34-216): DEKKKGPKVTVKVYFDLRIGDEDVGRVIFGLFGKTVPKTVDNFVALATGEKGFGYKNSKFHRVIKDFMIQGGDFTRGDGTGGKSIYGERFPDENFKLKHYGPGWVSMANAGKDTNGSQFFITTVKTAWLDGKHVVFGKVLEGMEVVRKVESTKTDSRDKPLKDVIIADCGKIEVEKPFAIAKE
Starred links: 1 amine or outer side, 2 acyl side, 3 side chain; linkers in the order of their positions; H or OH if unused. Non-standard residues stand in square brackets, D forms with d. Residues, ends and D or L forms follow the SMILES beside them. X55 = C[C@H](CN(C)CC(=O)N(C)C)[C@@H](C(=O)[*:2])N(C)[*:1]; MeBmt = C/C=C/C[C@@H](C)[C@@H](O)[C@H](NC)C(=O)O; NMeL = CN[C@@H](CC(C)C)C(=O)O; NMeV = CN[C@H](C(=O)O)C(C)C; dNMeA = CN[C@H](C)C(=O)O; Abu = CC[C@H](N)C(=O)O
Endpoint name: CypB Kd

[[record]]
molecule = "C/C=C/C[C@@H](C)[C@@H](O)[C@H]1C(=O)N[C@@H](CC)C(=O)N(C)[C@H](C)C(=O)N(C)[C@@H]([C@H](C)CN(C)CC(=O)N(C)C)C(=O)N[C@@H](C(C)C)C(=O)N(C)[C@@H](CC(C)C)C(=O)N[C@@H](C)C(=O)N[C@H](C)C(=O)N(C)[C@@H](CC(C)C)C(=O)N(C)[C@@H](CC(C)C)C(=O)N(C)[C@@H](C(C)C)C(=O)N1C [Compound 2.5.27] (cyclo(A[dA][NMeL][NMeL][NMeV][MeBmt][Abu][dNMeA][X55]V[NMeL]))"
target_under_test = "UniProt P23284"
number = 0.8


----------
target: CypF (Homo sapiens (Human)); test: Inhibitor binding to cyclophilin proteins by SPR, CypF; settings: 1:1 binding model
Sequence (P30405 30-207): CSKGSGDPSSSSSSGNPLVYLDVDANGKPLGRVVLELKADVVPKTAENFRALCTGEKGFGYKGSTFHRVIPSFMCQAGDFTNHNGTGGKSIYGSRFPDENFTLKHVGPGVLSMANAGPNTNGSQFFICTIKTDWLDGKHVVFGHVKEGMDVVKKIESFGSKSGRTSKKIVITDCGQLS
Starred links: 1 amine or outer side, 2 acyl side, 3 side chain; linkers in the order of their positions; H or OH if unused. Non-standard residues stand in square brackets, D forms with d. Residues, ends and D or L forms follow the SMILES beside them. X45 = C[C@H](CCC(=O)N1CC2CCC(C1)O2)[C@@H](C(=O)[*:2])N(C)[*:1]; X56 = CCN1CCN(C(=O)OC[C@@H](C)[C@@H](C(=O)[*:2])N(C)[*:1])CC1; X33 = CC(C)N1CCOC(COC[C@@H](C)[C@@H](C(=O)[*:2])N(C)[*:1])C1; X7 = C[C@H](COCCN1CCS(=O)(=O)CC1)[C@@H](C(=O)[*:2])N(C)[*:1]; X21 = CCN1CCN(C[C@@H](C)[C@@H](C(=O)[*:2])N(C)[*:1])CC1; X18 = C[C@H](CCC(C)(C)O)[C@@H](C(=O)[*:2])N(C)[*:1]; MeBmt = C/C=C/C[C@@H](C)[C@@H](O)[C@H](NC)C(=O)O; NMeVal(4-OMe,3S) = CN[C@H](C(=O)O)[C@H](C)COC; NMeL = CN[C@@H](CC(C)C)C(=O)O; NMeV = CN[C@H](C(=O)O)C(C)C; dNMeS = CN[C@H](CO)C(=O)O; dNMeA = CN[C@H](C)C(=O)O; Abu = CC[C@H](N)C(=O)O
Endpoint name: log10(CypF Kd) (log10 of the value in nM)

[[record]]
molecule = "C/C=C/C[C@@H](C)[C@@H](O)[C@H]1C(=O)N[C@@H](CC)C(=O)N(C)[C@H](C)C(=O)N(C)[C@@H]([C@H](C)CCC(=O)N2CC3CCC(C2)O3)C(=O)N[C@@H](C(C)C)C(=O)N(C)[C@@H](CC(C)C)C(=O)N[C@@H](C)C(=O)N[C@H](C)C(=O)N(C)[C@@H](CC(C)C)C(=O)N(C)[C@@H](CC(C)C)C(=O)N(C)[C@@H](C(C)C)C(=O)N1C [Compound 2.14.2] (cyclo(A[dA][NMeL][NMeL][NMeV][MeBmt][Abu][dNMeA][X45]V[NMeL]))"
number = 0.00

[[record]]
molecule = "C/C=C/C[C@@H](C)[C@@H](O)[C@H]1C(=O)N[C@@H](CC)C(=O)N(C)[C@H](CO)C(=O)N(C)[C@@H]([C@H](C)COC)C(=O)N[C@@H](C(C)C)C(=O)N(C)[C@@H](CC(C)C)C(=O)N[C@@H](C)C(=O)N[C@H](C)C(=O)N(C)[C@@H](CC(C)C)C(=O)N(C)[C@@H](CC(C)C)C(=O)N(C)[C@@H](C(C)C)C(=O)N1C [Compound 3.2.3] (cyclo(A[dA][NMeL][NMeL][NMeV][MeBmt][Abu][dNMeS][NMeVal(4-OMe,3S)]V[NMeL]))"
number = 0.85

[[record]]
molecule = "C/C=C/C[C@@H](C)[C@@H](O)[C@H]1C(=O)N[C@@H](CC)C(=O)N(C)[C@H](C)C(=O)N(C)[C@@H]([C@H](C)CN2CCN(CC)CC2)C(=O)N[C@@H](C(C)C)C(=O)N(C)[C@@H](CC(C)C)C(=O)N[C@@H](C)C(=O)N[C@H](C)C(=O)N(C)[C@@H](CC(C)C)C(=O)N(C)[C@@H](CC(C)C)C(=O)N(C)[C@@H](C(C)C)C(=O)N1C [Compound 2.5.13] (cyclo(A[dA][NMeL][NMeL][NMeV][MeBmt][Abu][dNMeA][X21]V[NMeL]))"
number = -0.30

[[record]]
molecule = "C/C=C/C[C@@H](C)[C@@H](O)[C@H]1C(=O)N[C@@H](CC)C(=O)N(C)[C@H](C)C(=O)N(C)[C@@H]([C@H](C)COCCN2CCN3C(=O)OC[C@@H]3C2)C(=O)N[C@@H](C(C)C)C(=O)N(C)[C@@H](CC(C)C)C(=O)N[C@@H](C)C(=O)N[C@H](C)C(=O)N(C)[C@@H](CC(C)C)C(=O)N(C)[C@@H](CC(C)C)C(=O)N(C)[C@@H](C(C)C)C(=O)N1C"
number = -0.30

[[record]]
molecule = "C/C=C/C[C@@H](C)[C@@H](O)[C@H]1C(=O)N[C@@H](CC)C(=O)N(C)[C@H](C)C(=O)N(C)[C@@H]([C@H](C)COCCN2CCS(=O)(=O)CC2)C(=O)N[C@@H](C(C)C)C(=O)N(C)[C@@H](CC(C)C)C(=O)N[C@@H](C)C(=O)N[C@H](C)C(=O)N(C)[C@@H](CC(C)C)C(=O)N(C)[C@@H](CC(C)C)C(=O)N(C)[C@@H](C(C)C)C(=O)N1C [Compound 2.8.2] (cyclo(A[dA][NMeL][NMeL][NMeV][MeBmt][Abu][dNMeA][X7]V[NMeL]))"
number = -0.22

[[record]]
molecule = "C/C=C/C[C@@H](C)[C@@H](O)[C@H]1C(=O)N[C@@H](CC)C(=O)N(C)[C@H](C)C(=O)N(C)[C@@H]([C@H](C)COCC2CN(C(C)C)CCO2)C(=O)N[C@@H](C(C)C)C(=O)N(C)[C@@H](CC(C)C)C(=O)N[C@@H](C)C(=O)N[C@H](C)C(=O)N(C)[C@@H](CC(C)C)C(=O)N(C)[C@@H](CC(C)C)C(=O)N(C)[C@@H](C(C)C)C(=O)N1C (stereo partly drawn) [Compound 2.20.2] (cyclo(A[dA][NMeL][NMeL][NMeV][MeBmt][Abu][dNMeA][X33]V[NMeL]))"
number = -0.52

[[record]]
molecule = "C/C=C/C[C@@H](C)[C@@H](O)[C@H]1C(=O)N[C@@H](CC)C(=O)N(C)[C@H](C)C(=O)N(C)[C@@H]([C@H](C)CCC(C)(C)O)C(=O)N[C@@H](C(C)C)C(=O)N(C)[C@@H](CC(C)C)C(=O)N[C@@H](C)C(=O)N[C@H](C)C(=O)N(C)[C@@H](CC(C)C)C(=O)N(C)[C@@H](CC(C)C)C(=O)N(C)[C@@H](C(C)C)C(=O)N1C [Compound 2.12] (cyclo(A[dA][NMeL][NMeL][NMeV][MeBmt][Abu][dNMeA][X18]V[NMeL]))"
number = 0.04

[[record]]
molecule = "C/C=C/C[C@@H](C)[C@@H](O)[C@H]1C(=O)N[C@@H](CC)C(=O)N(C)[C@H](C)C(=O)N(C)[C@@H]([C@H](C)COC(=O)N2CCN(CC)CC2)C(=O)N[C@@H](C(C)C)C(=O)N(C)[C@@H](CC(C)C)C(=O)N[C@@H](C)C(=O)N[C@H](C)C(=O)N(C)[C@@H](CC(C)C)C(=O)N(C)[C@@H](CC(C)C)C(=O)N(C)[C@@H](C(C)C)C(=O)N1C [Compound 2.5.24] (cyclo(A[dA][NMeL][NMeL][NMeV][MeBmt][Abu][dNMeA][X56]V[NMeL]))"
number = -0.52

[[record]]
molecule = "C/C=C/C[C@@H](C)[C@@H](O)[C@H]1C(=O)N[C@@H](CC)C(=O)N(C)[C@H](CC)C(=O)N(C)[C@@H]([C@H](C)COC)C(=O)N[C@@H](C(C)C)C(=O)N(C)[C@@H](CC(C)C)C(=O)N[C@@H](C)C(=O)N[C@H](C)C(=O)N(C)[C@@H](CC(C)C)C(=O)N(C)[C@@H](CC(C)C)C(=O)N(C)[C@@H](C(C)C)C(=O)N1C"
number = 0.28

